Biological target: T1, human APJ receptor (human, UniProt P35414 1-380)
T1 sequence (looked up): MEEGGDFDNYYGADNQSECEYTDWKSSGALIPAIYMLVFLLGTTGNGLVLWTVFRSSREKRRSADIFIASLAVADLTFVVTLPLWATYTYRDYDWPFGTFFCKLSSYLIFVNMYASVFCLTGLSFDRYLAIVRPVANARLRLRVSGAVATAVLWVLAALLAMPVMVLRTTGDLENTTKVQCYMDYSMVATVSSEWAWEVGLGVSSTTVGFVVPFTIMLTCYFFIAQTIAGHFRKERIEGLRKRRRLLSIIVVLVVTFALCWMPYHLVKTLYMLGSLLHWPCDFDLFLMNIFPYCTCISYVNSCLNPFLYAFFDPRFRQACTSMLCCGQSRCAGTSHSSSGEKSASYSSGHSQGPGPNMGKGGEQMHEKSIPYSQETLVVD
Test: cell-based or functional assay
Starred links: 1 amine or outer side, 2 acyl side, 3 side chain; linkers in the order of their positions; H or OH if unused. Non-standard residues stand in square brackets, D forms with d. Primed or numbered codes have the meaning given here. *: point of attachment. AC4Abu = α-carboxy-4-aminobutyric acid, O=C(C(CCN[*:1])C(=O)[*:3])[*:2]; Oic = O=C(O)[C@@H]1C[C@@H]2CCCC[C@@H]2N1; Phe(4-Cl) = N[C@@H](Cc1ccc(Cl)cc1)C(=O)O; γGlu = O=C(O)[C@H](CCC(=O)[*:2])N[*:1]; NMeR = CN[C@@H](CCCNC(=N)N)C(=O)O; Tridecanoyl = CCCCCCCCCCCCC(=O)*; hArg = N=C(N)NCCCC[C@H](N)C(=O)O; Cha = N[C@@H](CC1CCCCC1)C(=O)O; Aic = NC1(C(=O)O)Cc2ccccc2C1; αMeP = C[C@@]1(C(=O)O)CCCN1; Nle = CCCC[C@H](N)C(=O)O; Pip′ = not defined here; AEEA = NCCOCCOCC(=O)O; Aib = CC(C)(N)C(=O)O; BLeu = β-leucine
ENDPOINT: EC50 Human APJ Receptor (GTPγS assay) (nM)

Tridecanoyl-[γGlu][AEEA][AEEA][dQ]R[αMeP][hArg][BLeu]SHKG[Oic][Nle][Aib][Phe(4-Cl)]-OH [Apelin polypeptide SEQ ID NO: 505]	0.0707
Tridecanoyl-[γGlu][AEEA][AEEA][dQ]R[αMeP][hArg][BLeu]SHKG[Pip′][Nle][Phe(4-Cl)]-OH [Apelin polypeptide SEQ ID NO: 501]	10.9
Tridecanoyl-[γGlu][AEEA][AEEA]QRP[NMeR][Cha]SH[AMeK]G[Oic][Nle]P[Phe(4-Cl)]-OH [Apelin polypeptide SEQ ID NO: 444]	5.6
Tridecanoyl-[AC4Abu][AEEA][AEEA]QRP[NMeR]LSHKGP[Nle][Phe(4-Cl)]-OH (SMILES CCCCCCCCCCCCC(=O)NCCC(C(=O)O)C(=O)NCCOCCOCC(=O)NCCOCCOCC(=O)N[C@@H](CCC(N)=O)C(=O)N[C@@H](CCCNC(=N)N)C(=O)N1CCC[C@H]1C(=O)N(C)[C@@H](CCCNC(=N)N)C(=O)N[C@@H](CC(C)C)C(=O)N[C@@H](CO)C(=O)N[C@@H](Cc1c[nH]cn1)C(=O)N[C@@H](CCCCN)C(=O)NCC(=O)N1CCC[C@H]1C(=O)N[C@@H](CCCC)C(=O)N[C@@H](Cc1ccc(Cl)cc1)C(=O)O) [Apelin polypeptide SEQ ID NO: 402]	0.1
Tridecanoyl-[γGlu][AEEA][AEEA][dQ][hArg]P[dR][Cha]SHKG[Oic][Nle]P[Aic]-OH [Apelin polypeptide SEQ ID NO: 366]	17.1
Tridecanoyl-[γGlu][AEEA][AEEA][dQ]RP[NMeR][Cha]SHKG[αMeP][Nle][Phe(4-Cl)]-OH (SMILES CCCCCCCCCCCCC(=O)N[C@@H](CCC(=O)NCCOCCOCC(=O)NCCOCCOCC(=O)N[C@H](CCC(N)=O)C(=O)N[C@@H](CCCNC(=N)N)C(=O)N1CCC[C@H]1C(=O)N(C)[C@@H](CCCNC(=N)N)C(=O)N[C@@H](CC1CCCCC1)C(=O)N[C@@H](CO)C(=O)N[C@@H](Cc1c[nH]cn1)C(=O)N[C@@H](CCCCN)C(=O)NCC(=O)N1CCC[C@@]1(C)C(=O)N[C@@H](CCCC)C(=O)N[C@@H](Cc1ccc(Cl)cc1)C(=O)O)C(=O)O) [Apelin polypeptide SEQ ID NO: 551]	0.235
